Molecular target: Bone morphogenetic protein receptor type-1B (Homo sapiens)
Sequence (O00238 whole entry): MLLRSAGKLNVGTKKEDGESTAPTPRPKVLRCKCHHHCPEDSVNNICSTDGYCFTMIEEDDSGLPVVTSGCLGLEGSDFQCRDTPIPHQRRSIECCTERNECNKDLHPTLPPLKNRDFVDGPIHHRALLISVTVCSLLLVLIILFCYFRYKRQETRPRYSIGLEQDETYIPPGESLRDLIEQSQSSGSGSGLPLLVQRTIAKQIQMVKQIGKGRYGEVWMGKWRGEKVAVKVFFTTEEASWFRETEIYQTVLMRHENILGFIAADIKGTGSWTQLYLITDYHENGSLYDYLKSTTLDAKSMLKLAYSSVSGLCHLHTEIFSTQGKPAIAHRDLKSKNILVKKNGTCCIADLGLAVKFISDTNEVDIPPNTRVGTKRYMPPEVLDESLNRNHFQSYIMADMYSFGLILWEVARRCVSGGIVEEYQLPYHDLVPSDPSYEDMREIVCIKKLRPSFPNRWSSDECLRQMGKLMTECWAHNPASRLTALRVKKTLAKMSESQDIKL
Test: Inhibition of recombinant human BMPR1B (148 to end residues) using casein as substrate incubated for 40 mins in presence of [gamma-33P-ATP] by radiometric scintillation assay
reportedEndpoint: pIC50
// pIC50 is dimensionless: -log10 of concentration (M)

Query: pIC50 for `c1cc(CN2CCOCC2)cc(Nc2nccc(NCCc3cnc[nH]3)n2)c1` ?
Response: 5.04

* * *

Molecular target: Inhibitor of nuclear factor kappa-B kinase subunit epsilon (Homo sapiens, UniProt Q14164)
Sequence (Q14164 whole entry): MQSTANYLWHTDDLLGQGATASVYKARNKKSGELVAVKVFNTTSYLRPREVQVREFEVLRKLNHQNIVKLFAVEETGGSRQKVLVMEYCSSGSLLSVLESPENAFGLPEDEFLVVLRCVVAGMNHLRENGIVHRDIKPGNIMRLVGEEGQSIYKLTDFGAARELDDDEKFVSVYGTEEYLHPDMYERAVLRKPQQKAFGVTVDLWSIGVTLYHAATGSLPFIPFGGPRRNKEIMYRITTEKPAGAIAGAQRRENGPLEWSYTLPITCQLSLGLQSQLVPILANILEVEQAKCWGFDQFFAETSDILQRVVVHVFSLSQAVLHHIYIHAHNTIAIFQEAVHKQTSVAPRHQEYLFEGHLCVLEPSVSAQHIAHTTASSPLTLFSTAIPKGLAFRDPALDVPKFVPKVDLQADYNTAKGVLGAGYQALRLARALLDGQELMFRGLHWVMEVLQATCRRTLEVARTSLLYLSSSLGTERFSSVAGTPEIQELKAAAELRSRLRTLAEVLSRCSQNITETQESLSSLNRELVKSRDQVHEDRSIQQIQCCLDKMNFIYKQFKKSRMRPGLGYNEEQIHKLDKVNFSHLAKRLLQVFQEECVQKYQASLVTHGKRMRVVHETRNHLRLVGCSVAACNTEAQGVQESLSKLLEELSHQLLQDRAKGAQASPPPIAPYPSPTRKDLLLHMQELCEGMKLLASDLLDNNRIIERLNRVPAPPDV
Assay: Inhibition of full length recombinant human IKKepsilon using casein as substrate incubated for 40 mins in presence of [gamma-33P-ATP] by radiometric scintillation assay
reportedEndpoint: IC50 (nM)
// return numeric value only (unit: nM, not printed)

Solved cases below.
INSERT INTO measurements (compoundstring, measurementunits, assayvalue) VALUES
  ('Cc1nn(CC(F)(F)F)cc1Nc1ncc(C2CC2)c(NCc2ccc(S(N)(=O)=O)cc2)n1', 'nM', 1200),
  ('Cc1nn(CC(F)(F)F)cc1Nc1ncc(Br)c(NCc2ccc(S(N)(=O)=O)cc2)n1', 'nM', 552),
  ('NS(=O)(=O)c1ccc(CNc2nc(Nc3cccc(CN4CCOCC4)c3)ncc2C2CC2)cc1', 'nM', 1310);

Query: IC50 for `Cc1nn(CC(F)(F)F)cc1Nc1ncc(C2CC2)c(NCCCNC(=O)C2CCC2)n1` ?
Response: 216

* * *

Biological target: Serine/threonine-protein kinase 17A (Homo sapiens)
Assay: Inhibition of recombinant human DRAK1 using KKLNRTLSFAEPG as substrate after 40 mins in presence of [gamma-33ATP] by scintillation counting based radiometry assay
Activity calls are given as the source filed them. The rule behind the calls is not given here.
reportedEndpoint: inhibition

INSERT INTO assay_data (compoundstring, systemname, reportedendpoint, assayvalue) VALUES
  ('O=C(NCCCNc1nc(Nc2cccc(NC(=O)N3CCCC3)c2)ncc1Br)C1CCC1', 'Serine/threonine-protein kinase 17A (Homo sapiens)', 'inhibition', 'Active'),
  ('Cc1nn(CC(F)(F)F)cc1Nc1ncc(Br)c(NCCCNC(=O)C2CCC2)n1', 'Serine/threonine-protein kinase 17A (Homo sapiens)', 'inhibition', 'Active'),
  ('O=C(NCCCNc1nc(Nc2cccc(CN3CCOCC3)c2)ncc1C1CC1)C1CCC1', 'Serine/threonine-protein kinase 17A (Homo sapiens)', 'inhibition', 'Active'),
  ('Brc1cnc(Nc2cccc(CN3CCOCC3)c2)nc1NCCc1c[nH]cn1', 'Serine/threonine-protein kinase 17A (Homo sapiens)', 'inhibition', 'Active');

Now for another entry.
Query: inhibition for `O=C(NCCCNc1nc(Nc2cccc(NC(=O)N3CCCC3)c2)ncc1C1CC1)C1CCC1` ?
Response: Active

* * *

Let's look at some compounds and their measured log10(Kinetic solubility).
Assay: Kinetic solubility of compound in PBS at pH 7.4 incubated for 24 hrs by chemiluminscent nitrogen detection method
Assay type: physicochemical
Settings: buffer, pH 7.4, 24 h
Could you please treat all values as log10 of Kinetic solubility in µM?

INSERT INTO measurements (compoundstring, reportedendpoint, assayvalue) VALUES
  ('O=C(NCCCNc1nc(Nc2cccc(NC(=O)N3CCCC3)c2)ncc1Br)C1CCC1', 'log10(Kinetic solubility)', 2.13),
  ('NS(=O)(=O)c1ccc(CNc2nc(Nc3cccc(CN4CCOCC4)c3)ncc2Br)cc1', 'log10(Kinetic solubility)', 0.67),
  ('NS(=O)(=O)c1ccc(CNc2nc(Nc3cccc(NC(=O)N4CCCC4)c3)ncc2C2CC2)cc1', 'log10(Kinetic solubility)', 1.93),
  ('c1cc(CN2CCOCC2)cc(Nc2nccc(NCCc3cnc[nH]3)n2)c1', 'log10(Kinetic solubility)', 2.30);

Query: log10(Kinetic solubility) for `O=C(NCCCNc1ccnc(Nc2cccc(NC(=O)N3CCCC3)c2)n1)C1CCC1` ?
Response: 2.23

* * *

Target: Macrophage colony-stimulating factor 1 receptor (Homo sapiens, UniProt P07333)
Sequence (P07333 whole entry, the tested form may be a part): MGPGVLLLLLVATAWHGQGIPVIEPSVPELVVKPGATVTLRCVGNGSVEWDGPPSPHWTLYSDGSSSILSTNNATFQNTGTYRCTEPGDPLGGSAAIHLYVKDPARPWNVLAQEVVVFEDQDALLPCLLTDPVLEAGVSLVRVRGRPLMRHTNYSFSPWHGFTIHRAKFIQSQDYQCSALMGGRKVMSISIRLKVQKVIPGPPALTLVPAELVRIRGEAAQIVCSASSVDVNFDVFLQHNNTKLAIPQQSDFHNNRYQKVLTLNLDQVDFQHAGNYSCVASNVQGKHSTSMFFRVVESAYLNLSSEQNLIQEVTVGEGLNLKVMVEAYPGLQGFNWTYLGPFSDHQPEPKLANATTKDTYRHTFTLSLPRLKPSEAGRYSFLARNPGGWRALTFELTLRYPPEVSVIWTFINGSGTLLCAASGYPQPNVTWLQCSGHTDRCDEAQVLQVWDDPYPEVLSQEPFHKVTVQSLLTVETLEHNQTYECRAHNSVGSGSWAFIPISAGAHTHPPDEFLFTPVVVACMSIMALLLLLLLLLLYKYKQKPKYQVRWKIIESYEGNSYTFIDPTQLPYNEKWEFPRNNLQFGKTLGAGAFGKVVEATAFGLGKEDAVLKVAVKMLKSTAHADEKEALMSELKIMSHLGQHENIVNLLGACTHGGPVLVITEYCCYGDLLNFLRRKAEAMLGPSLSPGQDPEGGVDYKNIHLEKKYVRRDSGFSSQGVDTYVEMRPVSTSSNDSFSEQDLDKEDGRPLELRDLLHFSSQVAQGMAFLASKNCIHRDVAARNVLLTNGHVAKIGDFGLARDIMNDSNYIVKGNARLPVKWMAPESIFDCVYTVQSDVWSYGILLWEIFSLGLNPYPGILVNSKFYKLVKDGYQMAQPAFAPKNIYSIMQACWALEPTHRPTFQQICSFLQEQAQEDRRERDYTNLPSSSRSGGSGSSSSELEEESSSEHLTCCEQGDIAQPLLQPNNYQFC
Assay: Inhibition of NanoLuc-fused CSF1R (unknown origin) expressed in HEK293 cells incubated for 2 hrs by NanoBRET assay
Assay type: cell-based
pIC50: −log10 of the molar value.
Let's look at some compounds and their measured pIC50.

Solved cases below.
INSERT INTO measurements (compoundstring, systemname, reportedendpoint, assayvalue) VALUES
  ('NS(=O)(=O)c1ccc(CNc2ccnc(Nc3cccc(NC(=O)N4CCCC4)c3)n2)cc1', 'Macrophage colony-stimulating factor 1 receptor (Homo sapiens, UniProt P07333)', 'pIC50', '< 5.00'),
  ('Cc1nn(CC(F)(F)F)cc1Nc1ncc(Br)c(NCc2ccc(S(N)(=O)=O)cc2)n1', 'Macrophage colony-stimulating factor 1 receptor (Homo sapiens, UniProt P07333)', 'pIC50', '< 5.00'),
  ('NS(=O)(=O)c1ccc(CNc2ccnc(Nc3cccc(CN4CCOCC4)c3)n2)cc1', 'Macrophage colony-stimulating factor 1 receptor (Homo sapiens, UniProt P07333)', 'pIC50', 5.30);

Now for another entry.
Query: pIC50 for `Cc1nn(CC(F)(F)F)cc1Nc1nccc(NCc2ccc(S(N)(=O)=O)cc2)n1` ?
Response: < 5.00

* * *

Experiment: Effective permeability in PBS at 7.4 incubated for 5 hrs by PAMPA analysis
Assay type: ADME
Conditions: pH 7.4, 5 h
reportedEndpoint: Peff

Solved cases below.
INSERT INTO measurements (compoundstring, reportedendpoint, assayvalue) VALUES
  ('Brc1cnc(Nc2cccc(CN3CCOCC3)c2)nc1NCCc1c[nH]cn1', 'Peff', '1.3 10^-6 cm/s'),
  ('O=C(NCCCNc1nc(Nc2cccc(NC(=O)N3CCCC3)c2)ncc1Br)C1CCC1', 'Peff', '8.85 10^-7 cm/s'),
  ('Cc1nn(CC(F)(F)F)cc1Nc1ncc(Br)c(NCCc2cnc[nH]2)n1', 'Peff', '1.51 10^-6 cm/s'),
  ('NS(=O)(=O)c1ccc(CNc2nc(Nc3cccc(CN4CCOCC4)c3)ncc2C2CC2)cc1', 'Peff', '7.09 10^-7 cm/s');

Now for another entry.
Query: Peff for `Cc1nn(CC(F)(F)F)cc1Nc1ncc(C2CC2)c(NCCCNC(=O)C2CCC2)n1` ?
Response: 5.08 10^-6 cm/s

* * *

Assay: Inhibition of human TTBK1 (1 to 479 residues) using Casein as substrate measured after 40 mins in presence of [gamma33P]ATP by scintillation counting method
Let's look at some molecules and their measured IC50.
// return numeric value only (unit: nM, not printed)

INSERT INTO measurements (compoundstring, measurementunits, assayvalue) VALUES
  ('NS(=O)(=O)c1ccc(CNc2nc(Nc3cccc(CN4CCOCC4)c3)ncc2C2CC2)cc1', 'nM', 187),
  ('Cc1nn(CC(F)(F)F)cc1Nc1ncc(C2CC2)c(NCCCNC(=O)C2CCC2)n1', 'nM', 192),
  ('NS(=O)(=O)c1ccc(CNc2nc(Nc3cccc(NC(=O)N4CCCC4)c3)ncc2C2CC2)cc1', 'nM', 128);

Query: IC50 for `NS(=O)(=O)c1ccc(CNc2nc(Nc3cccc(CN4CCOCC4)c3)ncc2Br)cc1` ?
Response: 66

Query: What would you report for `Cc1nn(CC(F)(F)F)cc1Nc1ncc(C2CC2)c(NCc2ccc(S(N)(=O)=O)cc2)n1` ?
Response: 149

* * *

Target: Serine/threonine-protein kinase 17B (Homo sapiens, UniProt O94768)
Sequence (O94768 whole entry): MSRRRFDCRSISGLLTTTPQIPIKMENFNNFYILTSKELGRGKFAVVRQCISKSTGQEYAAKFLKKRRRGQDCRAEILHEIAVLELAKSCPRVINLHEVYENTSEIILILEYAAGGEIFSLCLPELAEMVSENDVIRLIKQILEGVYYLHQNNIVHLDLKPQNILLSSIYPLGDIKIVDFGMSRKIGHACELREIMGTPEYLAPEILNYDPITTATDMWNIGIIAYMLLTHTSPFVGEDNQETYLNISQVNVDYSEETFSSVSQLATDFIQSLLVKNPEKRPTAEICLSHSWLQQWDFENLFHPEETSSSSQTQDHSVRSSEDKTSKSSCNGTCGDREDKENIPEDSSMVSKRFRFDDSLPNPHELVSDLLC
Experiment: Inhibition of recombinant human DRAK2 using KKRPQRRYSNVF as substrate after 120 mins in presence of [gamma-33ATP] by scintillation counting based radiometry assay
reportedEndpoint: IC50 (nM)
// return numeric value only (unit: nM, not printed)

Query: IC50 for `O=C(NCCCNc1ccnc(Nc2cccc(NC(=O)N3CCCC3)c2)n1)C1CCC1` ?
Response: 161

* * *

Let's look at some molecules and their measured pIC50.
Assay: Inhibition of human TTBK1 (1 to 479 residues) using Casein as substrate measured after 40 mins in presence of [gamma33P]ATP by scintillation counting method
// pIC50 is dimensionless: -log10 of concentration (M)

Solved cases below.
INSERT INTO assay_data (compoundstring, assayvalue) VALUES
  ('NS(=O)(=O)c1ccc(CNc2ccnc(Nc3cccc(CN4CCOCC4)c3)n2)cc1', 5.56),
  ('NS(=O)(=O)c1ccc(CNc2nc(Nc3cccc(NC(=O)N4CCCC4)c3)ncc2Br)cc1', 6.72);

Now for another entry.
Query: pIC50 for `Cc1nn(CC(F)(F)F)cc1Nc1ncc(Br)c(NCc2ccc(S(N)(=O)=O)cc2)n1` ?
Response: 7.43

* * *

Target: Serine/threonine-protein kinase 17A (Homo sapiens, UniProt Q9UEE5)
Sequence (Q9UEE5 whole entry): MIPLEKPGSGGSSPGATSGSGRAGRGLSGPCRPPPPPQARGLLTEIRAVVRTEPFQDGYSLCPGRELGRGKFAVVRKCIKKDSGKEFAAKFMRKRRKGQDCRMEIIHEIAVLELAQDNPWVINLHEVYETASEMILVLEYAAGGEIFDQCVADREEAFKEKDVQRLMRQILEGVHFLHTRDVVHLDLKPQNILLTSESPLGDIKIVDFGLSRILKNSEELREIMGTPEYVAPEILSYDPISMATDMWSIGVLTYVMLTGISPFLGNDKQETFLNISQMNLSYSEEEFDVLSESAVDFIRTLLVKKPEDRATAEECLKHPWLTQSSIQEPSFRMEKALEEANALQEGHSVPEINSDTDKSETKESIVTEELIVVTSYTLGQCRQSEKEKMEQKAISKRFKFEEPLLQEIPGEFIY
Assay: Inhibition of recombinant human DRAK1 using KKLNRTLSFAEPG as substrate after 40 mins in presence of [gamma-33ATP] by scintillation counting based radiometry assay
reportedEndpoint: pIC50
// pIC50 is dimensionless: -log10 of concentration (M)

INSERT INTO assay_data (compoundstring, systemname, assayvalue) VALUES
  ('O=C(NCCCNc1ccnc(Nc2cccc(NC(=O)N3CCCC3)c2)n1)C1CCC1', 'Serine/threonine-protein kinase 17A (Homo sapiens, UniProt Q9UEE5)', 6.49);

Now for another entry.
Query: pIC50 for `Cc1nn(CC(F)(F)F)cc1Nc1ncc(C2CC2)c(NCCCNC(=O)C2CCC2)n1` ?
Response: 6.69
